Tested on: K4 kissing-loop RNA reporter;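 also: bound reporter read as fluorescence of individual clusters on recovered sequencing chips by microscopy, with normalized cluster intensities fitted with a binding model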
Test: apparent KD of K4 kissing-loop reporter; higher = weaker reporter binding
Conditions: Eterna round: R107; input ligand: tryptophan 2.4 mM
experimental-endpoint: apparent KD of K4 kissing-loop reporter
Value and unit, in that order.

sequence	apparent KD of K4 kissing-loop reporter
UCGAAGGAUGGAAGGAGCGCUCGUCAGCCCUGCGAGUGAUGUUCGUGGGUAAAUAGUCGCGAGCAGGUAGGUCGCCAUCUUGAGC [Ritera]	116 nM
GACGGGCAGUGAUGUUGCCGGUCUCUUGGACGAGGACCGGUACGGCCGCCACUCGAUCUGAUGCGAGAAUUGUAUCUUUUAAUAA [Tegesosoat]	347 nM
UGUCAUUGGUCGGCCGCCACUUCAUAAAGAGUGAUGUUCUGAAAGACGGAUCGAAAGAUCUGUCGAAGGACCGGGACCGAUGACU [FiskerMod 1 - Jieux - Same State - Tryptophan B]	236 nM

Q: Which measured apparent KD of K4 kissing-loop reporter value corresponds to AAUAAGCGCGGAAGGAGCGCCGCCAGUGAUGUUGGGAGUUAGAUACCAGUGAUGUUGGGCCGGCAGGUAGGUCGCCGCAAAGCUU [Exclusion Arginine B Gf 14] ?
A: 138 nM

Q: Check CAUAUACAAGUGAUGUUUGUACUAACCGAAGGAGCGUCGUUGAAGACAGGUAGGUCGCGGUUUAAGUUAGAUUAUAUAAUUCCAC [JR_Nu_SSArginiA_Sub027] too.
A: 509 nM

Q: Check UAAGAGGACCACUGCAAGAGUCCUCGAAUACGAGGACCGGUACGGCCGCCACUCGAUAAUUUGCAGUGAUGUUGCAAGUAAGAAU [BrourdMod 5 - Jieux - Same State Tryptophan A] too.
A: 54.4 nM

The measured values listed here are drawn from the supplement of paper PMC9170038.
